- testSystem: CD3ε (SPR analyte) (UniProt P07766 23-126, limits assumed)
- Sequence (P07766 23-126 limits assumed): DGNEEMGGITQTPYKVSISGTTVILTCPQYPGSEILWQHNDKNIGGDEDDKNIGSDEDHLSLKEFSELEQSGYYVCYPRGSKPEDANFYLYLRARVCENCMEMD
- experimentalDetails: SPR, scFv-Fc
Entries and their kon values follow.

binder: humanized scFv BG562P (scFv-Fc) (Fc fusion, BG561P with L4V in VL; not shown: human IgG1 Fc region, scFv fused to its N-terminus) scFv: EVQLVESGGGLVQPGGSLRLSCAASGFTFNTYAMNWVRQAPGKGLEWVARIRSKYNNYATYYADSVKDRFTISRDDAKNSLYLQMNSLRAEDTAVYYCVRHGNFGNSYVSWFAYWGQGTLVTVSSGGGGSGGGGSGGGGSEIVVTQSPATLSVSPGERATLSCRSSTGAVTTSNYANWVQQKPGQAPRGLIGGTNKRAPGIPARFSGSLSGDEATLTISSLQSEDFAVYYCALWYSNLWVFGGGTKVEIK
recordedValue: 116000 M⁻¹ s⁻¹

Form: binder = humanized scFv BG563P (scFv-Fc) (Fc fusion, BG561P with L4V in VL and A49G, D65G in VH; not shown: human IgG1 Fc region, scFv fused to its N-terminus) scFv: EVQLVESGGGLVQPGGSLRLSCAASGFTFNTYAMNWVRQAPGKGLEWVGRIRSKYNNYATYYADSVKGRFTISRDDAKNSLYLQMNSLRAEDTAVYYCVRHGNFGNSYVSWFAYWGQGTLVTVSSGGGGSGGGGSGGGGSEIVVTQSPATLSVSPGERATLSCRSSTGAVTTSNYANWVQQKPGQAPRGLIGGTNKRAPGIPARFSGSLSGDEATLTISSLQSEDFAVYYCALWYSNLWVFGGGTKVEIK ; kon = 493000 M⁻¹ s⁻¹

// recorded kon for humanized sp34 scFv BG561P (scFv-Fc) (Fc fusion, scFv (VH-3xG4S-VK) fused to N-terminus of a human IgG1 Fc region; also called scFv-ized BG56P; not shown: human IgG1 Fc region, scFv fused to its N-terminus) scFv: EVQLVESGGGLVQPGGSLRLSCAASGFTFNTYAMNWVRQAPGKGLEWVARIRSKYNNYATYYADSVKDRFTISRDDAKNSLYLQMNSLRAEDTAVYYCVRHGNFGNSYVSWFAYWGQGTLVTVSSGGGGSGGGGSGGGGSEIVLTQSPATLSVSPGERATLSCRSSTGAVTTSNYANWVQQKPGQAPRGLIGGTNKRAPGIPARFSGSLSGDEATLTISSLQSEDFAVYYCALWYSNLWVFGGGTKVEIK : 72200 M⁻¹ s⁻¹

Item: humanized scFv BG564P (scFv-Fc) (Fc fusion, BG563P with N30S and N100S in VH; not shown: human IgG1 Fc region, scFv fused to its N-terminus) scFv: EVQLVESGGGLVQPGGSLRLSCAASGFTFSTYAMNWVRQAPGKGLEWVGRIRSKYNNYATYYADSVKGRFTISRDDAKNSLYLQMNSLRAEDTAVYYCVRHGNFGSSYVSWFAYWGQGTLVTVSSGGGGSGGGGSGGGGSEIVVTQSPATLSVSPGERATLSCRSSTGAVTTSNYANWVQQKPGQAPRGLIGGTNKRAPGIPARFSGSLSGDEATLTISSLQSEDFAVYYCALWYSNLWVFGGGTKVEIK | kon: 414000 M⁻¹ s⁻¹

Origin of the recorded values: patent US20240301062A1
